target: Virion infectivity factor (Human immunodeficiency virus type 1 group M subtype B (isolate BH10)) + Virion infectivity factor (Human immunodeficiency virus type 1 group M subtype B (isolate BRU/LAI)) + Virion infectivity factor (Human immunodeficiency virus type 1 group M subtype B (isolate PCV12)) + Virion infectivity factor (Human immunodeficiency virus type 1 group M subtype B (isolate HXB2)) + DNA dC->dU-editing enzyme APOBEC-3G (Homo sapiens) (UniProt P69720+P69721+P69722+P69723+Q9HC16); assay: HIV-1 Vif–A3G interaction blockers – biochemical, TR-FRET, GST-Vif 1-94, biotin-A3G peptide, dose response retest, primary screen (AID 1117319); details: TR-FRET GST-Vif / biotin-A3G peptide binding;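 note: Vif residues 1-94 fused to GST binding biotinylated APOBEC3G peptide 110-148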
pIC50: −log10 of the molar value. Records with an inconclusive call do not appear.
Answer NO if pIC50 is under 5, and YES if it is 5 or more.

Nc1ccc(S(=O)(=O)c2cc(O)c3ccccc3c2O)cc1 = NO
Oc1ccc(N=Cc2ccc(OCc3ccccc3)cc2)cc1 = YES
CC(N=Cc1cccc(O)c1O)c1ccccc1 (configuration not stated) = YES
COCCNC(=O)c1ccc(CS(=O)(=O)c2c(Cl)cccc2Cl)o1 = NO
COc1cc(C2Nc3ccccc3C(=O)N2c2ccccc2)ccc1O (configuration not stated) = NO
CC1=C/C(=N\OS(=O)(=O)c2ccccc2)C=CC1=O = NO
O=C(NNC(=O)c1ccccc1O)c1ccc(-c2ccc([N+](=O)[O-])cc2)o1 = NO
COc1ccccc1/C=C(/CC(=O)NCc1ccccc1)c1nc2ccccc2s1 = NO
CC1C/C(=C/c2ccco2)C(=O)/C(=C/c2ccco2)C1 (configuration not stated) = YES
Nc1cccc2c(O)cc(S(=O)(=O)O)cc12 = YES

Req: API: above_or_equal(metric=pIC50, cutoff=5) for item CN(C)c1ccc(O)c2c1CC1CC3[C@@H](N(C)C)C(=O)C(C(N)=O)=C(O)[C@]3(O)C(=O)C1=C2O (some centres not stated)
Resp: YES

Req: API: above_or_equal(metric=pIC50, cutoff=5) for item CCOc1ccc(-c2nnn(CC(=O)c3ccc4c(c3)OCCO4)n2)cc1OCC
Resp: NO

Req: API: above_or_equal(metric=pIC50, cutoff=5) for item CCC(C)NC(=O)Cc1cn(C)c2ccccc12 (configuration not stated)
Resp: NO

Req: API: above_or_equal(metric=pIC50, cutoff=5) for item O=C(/C=C/c1cccs1)N1CCN(c2ccc(O)cc2)CC1
Resp: NO

###

target: Virion infectivity factor (Human immunodeficiency virus type 1 group M subtype B (isolate BH10)) + Virion infectivity factor (Human immunodeficiency virus type 1 group M subtype B (isolate BRU/LAI)) + Virion infectivity factor (Human immunodeficiency virus type 1 group M subtype B (isolate PCV12)) + Virion infectivity factor (Human immunodeficiency virus type 1 group M subtype B (isolate HXB2)) + DNA dC->dU-editing enzyme APOBEC-3G (Homo sapiens) (UniProt P69720+P69721+P69722+P69723+Q9HC16); experiment: HIV-1 Vif–A3G interaction blockers – biochemical, TR-FRET, GST-Vif 1-94, biotin-A3G peptide, dose response retest, primary screen (AID 1117319); conditions: TR-FRET GST-Vif / biotin-A3G peptide binding;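 note: Vif residues 1-94 fused to GST binding biotinylated APOBEC3G peptide 110-148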
Results filed as inconclusive are left out.
Quick reference for IC50 among some compounds

Please review the following examples before continuing.
Cc1cccc(-n2c(N)cc(=O)nc2SCC(=O)NC2CCCCC2)c1 = 93.7 µM
CC(=O)c1ccc2c(c1)C1C=CCC1C(c1ccncc1)N2 (stereo not drawn) = 3.16 µM
CCN(CC)S(=O)(=O)c1ccc(/C=C/C(=O)Nc2ccc(N3CCOCC3)cc2)cc1 = 55.7 µM
Clc1ccc(OCc2nn3c(-c4ccco4)nnc3s2)c(Cl)c1 = 63.1 µM
CC(=O)c1ccc(S(=O)(=O)Nc2cccc(-n3cnnn3)c2)cc1 = 12.1 µM
CCN1C(=O)/C(=C\c2ccco2)C(C(=O)OC)=C1C = 23 µM
CCCCn1c(=NC(=O)c2cccnc2)c(C#N)cc2c(=O)n3cccc(C)c3nc21 = 55.9 µM
CCCCOc1ccc(C(=O)NCC(=O)NCC(=O)OCC)cc1 = 76.9 µM
COc1ccccc1NC(=O)COC(=O)c1cc2c(s1)CCC2 = 17.6 µM
O=[n+]1c2c(n([O-])c3cc(F)c(F)cc31)CCCC2 = 5.33 µM

Req: Could you share which IC50 value was measured for O=C(NCCO)c1ccc2nc(-c3ccco3)c(-c3ccco3)nc2c1 ?
Resp: 0.88 µM

Req: Could you share which IC50 value was measured for O=c1cc(-c2ccc(O)cc2)oc2cc(O)c(C3OC(CO)C(O)C(O)C3O)c(O)c12 (stereo not drawn) ?
Resp: 7.05 µM

Req: Could you share which IC50 value was measured for O=C(Nc1nc(-c2ccco2)c(-c2ccco2)s1)c1ccc(F)cc1F ?
Resp: 85.4 µM

Req: Could you share which IC50 value was measured for c1ccc(CSc2nnc(-c3ccco3)c(-c3ccco3)n2)cc1 ?
Resp: 6.93 µM

Req: Could you share which IC50 value was measured for CC1(C)Cc2nc3sc(C(=O)O)c(N)c3cc2CS1 ?
Resp: 18.4 µM

###

Quick reference for IC50 among some compounds
target: Virion infectivity factor (Human immunodeficiency virus type 1 group M subtype B (isolate BH10)) + Virion infectivity factor (Human immunodeficiency virus type 1 group M subtype B (isolate BRU/LAI)) + Virion infectivity factor (Human immunodeficiency virus type 1 group M subtype B (isolate PCV12)) + Virion infectivity factor (Human immunodeficiency virus type 1 group M subtype B (isolate HXB2)) + DNA dC->dU-editing enzyme APOBEC-3G (Homo sapiens) (UniProt P69720+P69721+P69722+P69723+Q9HC16); experiment: HIV-1 Vif–A3G interaction blockers – biochemical, TR-FRET, GST-Vif 1-94, biotin-A3G peptide, dose response retest, primary screen (AID 1117319); settings: TR-FRET GST-Vif / biotin-A3G peptide binding;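 note: Vif residues 1-94 fused to GST binding biotinylated APOBEC3G peptide 110-148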
Records with an inconclusive call do not appear.

Please review the following examples before continuing.
Cc1cc(C)n(CC(=O)NNC(=O)c2ccc(NC(=O)CC#N)cc2)n1 = 91.3 µM
Oc1ccc(C[C@H]2NCCc3cc(O)c(O)cc32)cc1O = 9.77 µM
N#Cc1c(-c2ccco2)c2c([nH]c1=S)CCCC2 = 12.1 µM
O=C(N/N=C/c1cn(Cc2cccc(F)c2)c2ccccc12)c1cc(O)cc(O)c1 = 3.48 µM
O=C1C(O)CC2c3ccccc3CC3(CCCC3)N12 (stereo not given) = 50.6 µM

Req: Could you share which IC50 value was measured for CCOC(=O)c1sc2nc(CC(=O)OC)nc(NCc3ccco3)c2c1C ?
Resp: 2.44 µM

Req: Could you share which IC50 value was measured for CCCNC1=C(C)C(=O)C2=C(C1=O)C(COC(N)=O)[C@]1(OC)C3NC3CN21 (stereo not given in full) ?
Resp: 8.12 µM

Req: Could you share which IC50 value was measured for COc1ccc(N2CCN(C(=O)COc3ccccc3)CC2)cc1 ?
Resp: 76.9 µM

Req: Could you share which IC50 value was measured for COc1cccc(-c2nn(C)c3sc(C(=O)Nc4ccc5c(c4)OCCO5)cc23)c1 ?
Resp: 51.6 µM

Req: Could you share which IC50 value was measured for COc1cccc(CNC(=O)Cn2c(=O)oc3ccccc32)c1OC ?
Resp: 85.7 µM

Req: Could you share which IC50 value was measured for CC[n+]1c(/C=C2\C=C(C)CC(C)(C)C2)sc2ccccc21 ?
Resp: 57.9 µM

###

target: Virion infectivity factor (Human immunodeficiency virus type 1 group M subtype B (isolate BH10)) + Virion infectivity factor (Human immunodeficiency virus type 1 group M subtype B (isolate BRU/LAI)) + Virion infectivity factor (Human immunodeficiency virus type 1 group M subtype B (isolate PCV12)) + Virion infectivity factor (Human immunodeficiency virus type 1 group M subtype B (isolate HXB2)) + DNA dC->dU-editing enzyme APOBEC-3G (Homo sapiens) (UniProt P69720+P69721+P69722+P69723+Q9HC16); test: HIV-1 Vif–A3G interaction blockers – biochemical, TR-FRET, GST-Vif 1-94, biotin-A3G peptide, dose response retest, primary screen (AID 1117319); conditions: TR-FRET GST-Vif / biotin-A3G peptide binding;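 note: Vif residues 1-94 fused to GST binding biotinylated APOBEC3G peptide 110-148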
Records with an inconclusive call do not appear.
Quick reference for pIC50 among some compounds
# pIC50 = -log10(concentration in molar units)

Please review the following examples before continuing.
COc1ccc(NC(=O)/C(C#N)=C/c2ccc(Br)o2)cc1 = 4.83
O=[N+]([O-])c1cc(CN2CCCC2)c2cccnc2c1O = 5.61
O=C1CC(c2ccco2)CC(O)=C1C=Nc1cc(Cl)cc(Cl)c1 (configuration not stated) = 5.39
O=C(CCCN1C(=O)/C(=C\c2ccco2)SC1=S)Nc1ccc2ccccc2c1 = 5.14
Cc1cc(-c2nc3c4c5c(sc4[nH]c(=O)n3n2)CCC5)c(C)o1 = 6.16

Req: Could you share which pIC50 value was measured for CC1CCCCC1NC(=O)COC(=O)c1c2c(nc3ccccc13)/C(=C/c1ccco1)CC2 (configuration not stated) ?
Resp: 5.88

Req: Could you share which pIC50 value was measured for O=S(=O)(Nc1nccs1)c1ccc(Nc2nnc(-c3ccccc3)c3ccccc23)cc1 ?
Resp: 4.07

Req: Could you share which pIC50 value was measured for CC1CCN(Cc2c(O)ccc3c2O/C(=C\c2ccco2)C3=O)CC1 ?
Resp: 5.52

Req: Could you share which pIC50 value was measured for O=C(c1coc(=O)c(Br)c1)N1CCCc2ccccc21 ?
Resp: 4.61

Req: Could you share which pIC50 value was measured for Oc1ccc(-c2cn3c(n2)SCC3)cc1O ?
Resp: 5.95
